Biological target: T1, Mig (CXCL9) (UniProt Q07325 23-125)
T1 construct: Bought chemokine
T1 sequence (looked up): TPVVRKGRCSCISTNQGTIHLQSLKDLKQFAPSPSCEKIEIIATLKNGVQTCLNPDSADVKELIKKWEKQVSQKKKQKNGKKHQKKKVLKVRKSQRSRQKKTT
Experiment: micro-array, phage-presented peptide on printed CK
Ends that are not written are not given here.
measurementKind: binding result

1) HYTCSSHFP (also: displayed on M13 phage, fusion not given here) [Phage-Presented Peptide 17 (Ph-p17)]    binds
2) TKCQKE [Phage-Presented Peptide 20 (Ph-p20)]    binds
3) WVFGAAMCK [Phage-Presented Peptide 8.8 (Ph-p8.8)]    binds
4) WVFG [Phage-Presented Peptide 8.4 (Ph-p8.4)]    binds
5) TTFFDYDYG [Phage-Presented Peptide 11 (Ph-p11)]    binds
6) WVFGNAACK [Phage-Presented Peptide 8.7 (Ph-p8.7)]    binds
7) HHTCSLHFP [Phage-Presented Peptide 16 (Ph-p16)]    binds
8) WVFGAAACK [Phage-Presented Peptide 8.6 (Ph-p8.6)]    binds
